Reference source for all entries: patent US20090239841A1

target: hCB1 (Homo sapiens, UniProt P21554); construct: made in house; host or cells: Sf9 insect cells (baculovirus), P2 membranes; experiment: Agonist-induced GTP binding (GTPγ35S) assay at CB1, Example 8; assay type: biochemical
Sequence (P21554 whole entry): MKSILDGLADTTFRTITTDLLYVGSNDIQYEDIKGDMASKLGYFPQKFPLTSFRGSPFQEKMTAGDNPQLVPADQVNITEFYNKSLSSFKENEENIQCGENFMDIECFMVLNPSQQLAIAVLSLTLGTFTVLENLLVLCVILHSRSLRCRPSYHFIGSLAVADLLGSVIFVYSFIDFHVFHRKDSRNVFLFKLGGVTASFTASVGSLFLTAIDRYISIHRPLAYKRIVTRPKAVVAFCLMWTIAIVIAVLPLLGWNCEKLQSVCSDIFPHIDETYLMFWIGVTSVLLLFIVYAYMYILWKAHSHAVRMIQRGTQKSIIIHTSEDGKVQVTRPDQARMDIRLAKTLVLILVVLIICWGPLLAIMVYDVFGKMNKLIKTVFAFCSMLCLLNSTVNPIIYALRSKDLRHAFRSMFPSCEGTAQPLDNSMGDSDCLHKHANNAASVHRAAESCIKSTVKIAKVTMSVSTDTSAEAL
pIC50: −log10 of the molar value.
observationType: pIC50

Q: Provide measured pIC50 value, entry: O=C(Nc1ccc(OC(F)F)cc1)Nc1ccnc(Cl)c1
A: > 5.70
